assay: recombinant barcode read abundance after kanamycin selection (control-corrected) (log10(CPM+1)); higher = more efficient recombination; sequences stand for … in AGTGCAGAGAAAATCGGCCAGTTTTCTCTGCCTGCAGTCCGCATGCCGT…ATTTATGCAGCGGACTGCCTTTCTCCCAAAGTGATAAACCGGACAGTATCATGGACCGGTTTTCCCGGTAATCCGTATTTGCAAGGTTGGTTTCACT; site = the 11-nt target
reported property: recombinant barcode read abundance (log10)

- monomer sequence: "GAGTCCATTTGGGTTCTAACCTGTTGCGTAA [GAGTCCACTAC_LTGcore_TT_RTGcore_TT] (site GAGTCCACTAC) (LTG core: TT, RTG core: TT)"
  readout value: 0.0342
- monomer sequence: "AAACACAGGTGGGTTCTAACCTGTTGCCTCC [AAACACACTAG_LTGcore_GG_RTGcore_GG] (site AAACACACTAG) (LTG core: GG, RTG core: GG)"
  readout value: 0.0137
- monomer sequence: "AGGCGGTCTTGGGTTCTAACCTGTTGCTTGA [AGGCGGTCTAA_LTGcore_CT_RTGcore_TC] (site AGGCGGTCTAA) (LTG core: CT, RTG core: TC)"
  readout value: 0.107
- monomer sequence: "TCTACCCCTTGGGTTCTAACCTGTTGCTGTG [TCTACCCCTCA_LTGcore_CT_RTGcore_CA] (site TCTACCCCTCA) (LTG core: CT, RTG core: CA)"
  readout value: 0.182
- monomer sequence: "GTCGCCCAATGGGTTCTAACCTGTTGCTATT [GTCGCCCCTTA_LTGcore_AA_RTGcore_AA] (site GTCGCCCCTTA) (LTG core: AA, RTG core: AA)"
  readout value: 0.305
- monomer sequence: "TTATAAACTTGGGTTCTAACCTGTTGCCTAC [TTATAAACTAG_LTGcore_CT_RTGcore_GT] (site TTATAAACTAG) (LTG core: CT, RTG core: GT)"
  readout value: 0.944
- monomer sequence: "GGGCGGACATGGGTTCTAACCTGTTGCGGAG [GGGCGGACTCC_LTGcore_CA_RTGcore_CT] (site GGGCGGACTCC) (LTG core: CA, RTG core: CT)"
  readout value: 2.27
- monomer sequence: "TCTACCCCTTGGGTTCTAACCTGTTGCTGGG [TCTACCCCTCA_LTGcore_CT_RTGcore_CC] (site TCTACCCCTCA) (LTG core: CT, RTG core: CC)"
  readout value: 0.28
- monomer sequence: "GTCGCCCCTTGGGTTCTAACCTGTTGCTATG [GTCGCCCCTTA_LTGcore_CT_RTGcore_CA] (site GTCGCCCCTTA) (LTG core: CT, RTG core: CA)"
  readout value: 0.725
- monomer sequence: "ACGGGACCTTGGGTTCTAACCTGTTGCAGGA [ACGGGACCTCT_LTGcore_CT_RTGcore_TC] (site ACGGGACCTCT) (LTG core: CT, RTG core: TC)"
  readout value: 0.528
- monomer sequence: "GTCGCCCCGTGGGTTCTAACCTGTTGCTACG [GTCGCCCCTTA_LTGcore_CG_RTGcore_CG] (site GTCGCCCCTTA) (LTG core: CG, RTG core: CG)"
  readout value: 0.316

====

assay: recombinant barcode read abundance after kanamycin selection (control-corrected) (log10(CPM+1)); higher = more efficient recombination; sequences stand for … in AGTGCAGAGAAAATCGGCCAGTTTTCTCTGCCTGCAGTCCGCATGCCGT…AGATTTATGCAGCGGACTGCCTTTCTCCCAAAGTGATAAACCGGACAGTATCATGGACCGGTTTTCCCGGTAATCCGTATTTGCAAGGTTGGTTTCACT; site = the 11-nt target
reported property: recombinant barcode read abundance (log10)

- monomer sequence: "CCAAGCGCTTGGGTTCTAACCTGTTGCCT (site CCAAGCCCTAG)"
  readout value: 0.0283
- monomer sequence: "CTAATGGCTTGGGTTCTAACCTGTTGCCT (site CTAATGGCTAG)"
  readout value: 0.178
- monomer sequence: "CTATACTCTTGGGTTCTAACCTGTTGCCA (site CTATTCTCTTA)"
  readout value: 0.195
- monomer sequence: "GCAGGTACTTGGGTTCTAACCTGTTGCCT (site GCAGGTACTAG)"
  readout value: 1.17
- monomer sequence: "GAGGAGTCTTGGGTTCTAACCTGTTGCCT (site GAGTAGTCTAG)"
  readout value: 0.171
- monomer sequence: "GAGGAAGCTTGGGTTCTAACCTGTTGCCT (site GAGGAAGCTAG)"
  readout value: 1.81
- monomer sequence: "CTCCGTACTTGGGTTCTAACCTGTTGCCG (site CTTCGTACTTG)"
  readout value: 0.0671
- monomer sequence: "TAACGCTCTTGGGTTCTAACCTGTTGCCT (site AAACGCTCTAG)"
  readout value: 0.0696
- monomer sequence: "GGTACTTCTTGGGTTCTAACCTGTTGCTT (site CACCACCCTCC)"
  readout value: 0.157
- monomer sequence: "GTTCCTCCTTGGGTTCTAACCTGTTGCCT (site GTTCCTCCTAG)"
  readout value: 0.823

====

test: recombinant barcode read abundance after kanamycin selection (control-corrected) (log10(CPM+1)); higher = more efficient recombination; sequences stand for … in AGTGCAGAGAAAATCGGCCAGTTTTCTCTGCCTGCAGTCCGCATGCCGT…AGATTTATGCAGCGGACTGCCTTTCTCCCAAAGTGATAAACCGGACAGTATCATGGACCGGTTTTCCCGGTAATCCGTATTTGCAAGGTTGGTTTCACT; site = the 11-nt target
reported property: recombinant barcode read abundance (log10)

- monomer sequence: "CCTACACCTTGGGTTCTAACCTGTTGCCT (site CCTACATCTAG)"
  readout value: 0.52
- monomer sequence: "CATTAGTCTTGGGTTCTAACCTGTTGCCT (site TATTAATCTAG)"
  readout value: 0.0986
- monomer sequence: "CATCCATCTTGGGTTCTAACCTGTTGCAT (site CATCCATCTAT)"
  readout value: 0.883
- monomer sequence: "GAGCGAGCTTGGGTTCTAACCTGTTGCCG (site GAGCGAGCTCA)"
  readout value: 0.199
- monomer sequence: "AGAATGTCTTGGGTTCTAACCTGTTGCCT (site AGAACGTCTAG)"
  readout value: 0.0676
- monomer sequence: "GGGGCGACTTGGGTTCTAACCTGTTGCCT (site GGGGCGGCTAG)"
  readout value: 0.13
- monomer sequence: "AGGAAGACTTGGGTTCTAACCTGTTGCGG (site AGGAAGACTCC)"
  readout value: 3.01
- monomer sequence: "TTGGGCGCTTGGGTTCTAACCTGTTGCCT (site TTGGGCGCTAG)"
  readout value: 0.643
- monomer sequence: "AGTTCCACTTGGGTTCTAACCTGTTGCCT (site AGTTGCACTAG)"
  readout value: 0.0253
- monomer sequence: "AGATTTCCTTGGGTTCTAACCTGTTGCCT (site ACATTTCCTAG)"
  readout value: 0.218
- monomer sequence: "ACACGTGCTTGGGTTCTAACCTGTTGCGA (site ACACGTGCTTC)"
  readout value: 1.46
- monomer sequence: "AATTGTTCTTGGGTTCTAACCTGTTGCCT (site AATTGTTCTAG)"
  readout value: 0.253
- monomer sequence: "TAGTCGTCTTGGGTTCTAACCTGTTGCTA (site TAGTCGTCTTA)"
  readout value: 0.505
- monomer sequence: "AATAACCCTTGGGTTCTAACCTGTTGCCT (site AGTAACCCTAG)"
  readout value: 0.146
- monomer sequence: "CTCTCGGCTTGGGTTCTAACCTGTTGCCT (site CTCTGGGCTAG)"
  readout value: 0.138
- monomer sequence: "GCCATAACTTGGGTTCTAACCTGTTGCCT (site GCCATTACTAG)"
  readout value: 0.191
- monomer sequence: "AGTCGTTCTTGGGTTCTAACCTGTTGCCT (site GAGTTCACTCT)"
  readout value: 0.141
- monomer sequence: "GACCCTACTTGGGTTCTAACCTGTTGCCT (site AACCCTACTAG)"
  readout value: 0.111
- monomer sequence: "ATAAAGACTTGGGTTCTAACCTGTTGCCT (site ATTAAGACTAG)"
  readout value: 0.586
- monomer sequence: "GAGCGGACTTGGGTTCTAACCTGTTGCTA (site GAGCGAGCTTA)"
  readout value: 0.0384
- monomer sequence: "TTGAGTGCTTGGGTTCTAACCTGTTGCCT (site TTGAATGCTAG)"
  readout value: 0.259
- monomer sequence: "ACTTCTTCTTGGGTTCTAACCTGTTGCCT (site ACTTCTTCTAG)"
  readout value: 0.0747
- monomer sequence: "GTGCACCCTTGGGTTCTAACCTGTTGCTT (site GTGCACCCTAA)"
  readout value: 1.57
- monomer sequence: "GATGAGTCTTGGGTTCTAACCTGTTGCTT (site GATGAGTCTAG)"
  readout value: 1.34
- monomer sequence: "ATCGAGTCTTGGGTTCTAACCTGTTGCCA (site ATCGAGTCTTG)"
  readout value: 0.276
- monomer sequence: "CTGGGTCCTTGGGTTCTAACCTGTTGCTT (site CTTGGTTCTAA)"
  readout value: 0.179
- monomer sequence: "TAGTTCACTTGGGTTCTAACCTGTTGCCA (site TAGTTGACTTG)"
  readout value: 0.0545
- monomer sequence: "GTAGTAACTTGGGTTCTAACCTGTTGCCT (site GTAGTAGCTAG)"
  readout value: 0.206
- monomer sequence: "ACTTGCTCTTGGGTTCTAACCTGTTGCTT (site ACTTGCTCTAA)"
  readout value: 0.136
- monomer sequence: "ACCAATCCTTGGGTTCTAACCTGTTGCCT (site ACCAATTCTAG)"
  readout value: 0.0626
- monomer sequence: "TCCCGCCCTTGGGTTCTAACCTGTTGCCT (site GCACGCCCTAG)"
  readout value: 0.0125
- monomer sequence: "GGTCACCCTTGGGTTCTAACCTGTTGCGG (site GGTAACCCTCC)"
  readout value: 0.0652
- monomer sequence: "GCCTCGCCTTGGGTTCTAACCTGTTGCAG (site GCCGCGCCTCT)"
  readout value: 0.326
- monomer sequence: "TACGCGGCTTGGGTTCTAACCTGTTGCCT (site TACGCGGCTAG)"
  readout value: 0.335
- monomer sequence: "CGTGGTCCTTGGGTTCTAACCTGTTGCCT (site CGTGGTCCTAG)"
  readout value: 1.26
- monomer sequence: "GTGTATCCTTGGGTTCTAACCTGTTGCCA (site GTGTATCCTTG)"
  readout value: 0.196
- monomer sequence: "CGCCGTCCTTGGGTTCTAACCTGTTGCAT (site CGCCTTCCTAT)"
  readout value: 0.099
- monomer sequence: "AGTTCTCCTTGGGTTCTAACCTGTTGCCG (site AGTTCTCCTCG)"
  readout value: 0.0496
- monomer sequence: "GTGAGGACTTGGGTTCTAACCTGTTGCCT (site TTGAGGACTAG)"
  readout value: 0.316
- monomer sequence: "TTAAGTCCTTGGGTTCTAACCTGTTGCAT (site TTAGGTCCTAA)"
  readout value: 0.0454
- monomer sequence: "CATGATTCTTGGGTTCTAACCTGTTGCCT (site CATGATTCTAG)"
  readout value: 1.05
- monomer sequence: "TTGTAGACTTGGGTTCTAACCTGTTGCCT (site TTGATGACTAG)"
  readout value: 0.484
